molecular target: von Hippel-Lindau disease tumor suppressor/Epidermal growth factor receptor (Homo sapiens, UniProt P00533+P40337); experiment: Protac activity at VHL/wildtype EGFR in human OVCAR-8 cells assessed as degradation of wild type EGFR incubated for 24 hrs by immunoblot assay
Sequence (P00533 whole entry): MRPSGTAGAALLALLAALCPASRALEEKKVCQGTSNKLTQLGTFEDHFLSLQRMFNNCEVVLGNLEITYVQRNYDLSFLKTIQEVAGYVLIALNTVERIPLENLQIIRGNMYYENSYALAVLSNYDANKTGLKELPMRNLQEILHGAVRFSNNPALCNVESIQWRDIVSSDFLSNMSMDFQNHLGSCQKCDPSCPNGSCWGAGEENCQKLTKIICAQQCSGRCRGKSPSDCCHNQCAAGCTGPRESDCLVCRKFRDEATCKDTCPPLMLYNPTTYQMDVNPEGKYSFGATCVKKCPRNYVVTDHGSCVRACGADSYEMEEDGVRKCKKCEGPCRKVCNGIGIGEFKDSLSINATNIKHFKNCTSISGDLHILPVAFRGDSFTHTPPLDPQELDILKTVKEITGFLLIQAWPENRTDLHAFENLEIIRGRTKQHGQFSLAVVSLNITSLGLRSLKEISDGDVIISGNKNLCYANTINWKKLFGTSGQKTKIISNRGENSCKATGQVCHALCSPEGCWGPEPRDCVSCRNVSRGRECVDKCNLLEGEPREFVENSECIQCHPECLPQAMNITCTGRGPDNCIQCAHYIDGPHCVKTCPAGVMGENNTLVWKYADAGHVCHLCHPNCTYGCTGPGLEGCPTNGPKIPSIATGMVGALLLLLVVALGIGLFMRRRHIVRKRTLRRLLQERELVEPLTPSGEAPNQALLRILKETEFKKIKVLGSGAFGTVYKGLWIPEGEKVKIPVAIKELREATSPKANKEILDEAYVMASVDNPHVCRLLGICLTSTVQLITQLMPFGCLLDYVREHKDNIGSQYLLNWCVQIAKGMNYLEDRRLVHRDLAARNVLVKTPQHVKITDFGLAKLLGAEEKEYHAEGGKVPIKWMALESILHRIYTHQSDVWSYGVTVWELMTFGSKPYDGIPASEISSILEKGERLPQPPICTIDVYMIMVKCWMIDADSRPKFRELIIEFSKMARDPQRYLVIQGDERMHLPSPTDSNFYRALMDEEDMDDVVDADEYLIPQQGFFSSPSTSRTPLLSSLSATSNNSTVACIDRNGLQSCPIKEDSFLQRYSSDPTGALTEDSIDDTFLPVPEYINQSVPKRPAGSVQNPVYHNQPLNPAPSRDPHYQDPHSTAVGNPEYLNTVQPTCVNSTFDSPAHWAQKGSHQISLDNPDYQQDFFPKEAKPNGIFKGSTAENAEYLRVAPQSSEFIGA
Sequence (P40337 whole entry): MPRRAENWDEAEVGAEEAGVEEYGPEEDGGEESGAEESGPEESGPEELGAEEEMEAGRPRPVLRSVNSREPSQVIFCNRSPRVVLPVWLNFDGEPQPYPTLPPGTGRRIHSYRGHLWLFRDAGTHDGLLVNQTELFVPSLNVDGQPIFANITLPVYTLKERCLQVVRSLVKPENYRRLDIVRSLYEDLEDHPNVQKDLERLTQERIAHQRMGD
Outcome Measure: EC50 (nM)
Please reply with the bare figure in nM and do not write the unit itself.

## Task Which measured EC50 value corresponds to Cc1ncsc1-c1ccc(CNC(=O)[C@@H]2C[C@@H](O)CN2C(=O)[C@@H](NC(=O)COCCOCCOCCOc2ccc(-c3ccc4ncnc(Nc5ccc(OCc6cccc(F)c6)c(Cl)c5)c4c3)cc2)C(C)(C)C)cc1 ?
## Result 39.2

====

target: Protein cereblon/Cyclin-dependent kinase 6 (Homo sapiens, UniProt Q00534+Q96SW2); assay: Protac activity at CRBN/CDK6 in human MDA-MB-231 cells
Sequence (Q00534 whole entry): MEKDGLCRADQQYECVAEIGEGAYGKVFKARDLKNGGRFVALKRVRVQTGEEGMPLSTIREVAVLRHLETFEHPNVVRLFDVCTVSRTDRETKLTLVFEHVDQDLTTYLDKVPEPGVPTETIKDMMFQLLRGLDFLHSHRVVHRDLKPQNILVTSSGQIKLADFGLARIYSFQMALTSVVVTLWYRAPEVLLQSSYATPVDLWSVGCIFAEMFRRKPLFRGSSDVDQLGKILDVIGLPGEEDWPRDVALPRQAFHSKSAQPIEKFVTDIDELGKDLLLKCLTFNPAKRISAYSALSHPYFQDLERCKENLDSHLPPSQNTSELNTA
Sequence (Q96SW2 whole entry): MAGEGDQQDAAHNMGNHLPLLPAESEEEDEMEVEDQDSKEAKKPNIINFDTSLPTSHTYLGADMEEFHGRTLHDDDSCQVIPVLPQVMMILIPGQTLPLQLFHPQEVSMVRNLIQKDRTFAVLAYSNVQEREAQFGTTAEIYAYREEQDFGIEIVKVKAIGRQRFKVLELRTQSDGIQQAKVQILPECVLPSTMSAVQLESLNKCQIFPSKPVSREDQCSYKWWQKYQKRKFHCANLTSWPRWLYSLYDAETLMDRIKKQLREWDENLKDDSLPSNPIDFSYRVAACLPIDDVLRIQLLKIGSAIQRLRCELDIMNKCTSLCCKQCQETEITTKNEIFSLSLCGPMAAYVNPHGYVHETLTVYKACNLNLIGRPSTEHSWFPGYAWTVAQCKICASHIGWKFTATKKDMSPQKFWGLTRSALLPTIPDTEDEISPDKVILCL
Outcome Measure: EC50 (nM)
Please reply with the bare figure in nM and do not write the unit itself.

## Task Which measured EC50 value corresponds to CC(=O)C1=C(O)N(C2CCCC2)c2nc(Nc3ccc(N4CCN(Cc5cn(CCCCCNc6cccc7c6C(=O)N(C6CCC(=O)NC6=O)C7=O)nn5)CC4)cn3)ncc2C1C (stereo unspecified) ?
## Result 34.1

====

target: Protein cereblon/Cyclin-dependent kinase 4 (Homo sapiens, UniProt P11802+Q96SW2); assay: Protac activity at CRBN/CDK4 in human MDA-MB-231 cells
Sequence (P11802 whole entry, one chain of several): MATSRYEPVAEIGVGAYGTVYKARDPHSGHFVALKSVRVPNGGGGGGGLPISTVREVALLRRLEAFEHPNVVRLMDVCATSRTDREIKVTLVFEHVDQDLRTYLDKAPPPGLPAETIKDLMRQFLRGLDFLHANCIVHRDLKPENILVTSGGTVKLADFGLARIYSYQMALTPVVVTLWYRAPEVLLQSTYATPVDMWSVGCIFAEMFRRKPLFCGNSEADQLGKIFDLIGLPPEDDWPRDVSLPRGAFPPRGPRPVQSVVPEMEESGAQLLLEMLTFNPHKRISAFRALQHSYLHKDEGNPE
Quick reference: pEC50 of the listed items.
Value format note: pEC50 is -log10 of concentration (mol/L); just state the number.

Molecule	pEC50
CC(=O)C1=C(O)N(C2CCCC2)c2nc(Nc3ccc(N4CCN(Cc5cn(CCCCCNc6cccc7c6C(=O)N(C6CCC(=O)NC6=O)C7=O)nn5)CC4)cn3)ncc2C1C (configuration not stated)	7.89

With those in mind, consider the next molecule.
## Task Write down the reported pEC50 of CN(C)C(=O)c1cn(C2CCCC2)c2cnc(Nc3ccc(N4CCN(c5cn(CCCCCNc6cccc7c6C(=O)N(C6CCC(=O)NC6=O)C7=O)nn5)CC4)cn3)nc12 (configuration not stated) , test system: Protein cereblon/Cyclin-dependent kinase 4 (Homo sapiens, UniProt P11802+Q96SW2).
## Result 7.01
